Data origin: patent US20240117029A1

Consider the following binders and their measured T½ readings.
target or system: T1, human CCL2 (MCP1) - P8A variant (human, UniProt P13500 24-99)
T1 construct: Entry is without signal peptide; P8A prevents dimer formation (pure monomer); made in-house; also called monomeric human CCL2; monomeric CCL2
experimental details: SPR Biacore T200, 37 C, antibody captured, CCL2 as analyte, 1:1 model
Report as a plain number; the unit h is understood.

binder | unit of measure | data value
ABN912 (antibody, human IgG1, V domains shown, Generated as human IgG1 wild type and IgG1 PGLALA with kappa light chain; also called AB912; CCL2-0003) VH: EVQLVQSGGGLVQPGGSLRLSCAASGFTFSHYWMSWVRQAPGKGLEWLANIEQDGSEKYYVDSVKGRFTISRDNAKNSLYLQMNSLRAEDTAVYFCARDLEGLHGDGYFDLWGRGTLVTVSS VL: AIQLTQSPSSLSASVGDRVILTCRASQGVSSALAWYQQKPGKAPKLLIYDASSLESGVPSRFSGSGSGPDFTLTISSLQPEDFATYFCQQFNSYPLTFGGGTKVEIK | h | 0.417
Humanized 11K2 (antibody, human IgG1, V domains shown, Generated as human IgG1 wild type and IgG1 PGLALA with kappa light chain; also called CCL2-0002; humanized 11k2 IgG1) VH: QVQLVQSGAEVKKPGSSVKVSCKASGLTISDTYMHWVRQAPGQGLEWMGRIDPANGNTKFDPKFQGRVTITADTSTSTAYMELSSLRSEDTAVYYCARGVFGFFDYWGQGTTVTVSS VL: DIQMTQSPSSLSASVGDRVTITCKATEDIYNRLAWYQQKPGKAPKLLISGATSLETGVPSRFSGSGSGTDYTLTISSLQPEDFATYYCQQFWSAPYTFGGGTKVEIK | h | 1.93

# input for lookup
Exam item: Using the record for 1G9 (antibody, V domains shown, Generated as IgG1 wild type and IgG1 PGLALA with kappa light chain; also called CCL2-0010) VH: QSLEESGGDLVKPGASLTLTCKASGIDFSLYSYMCWVRQAPGKGLEWIACVDAGASGSTYYASWAKGRFTISKTSSTTVTLQMTSLTAADTATYFCARGILYYTWPYPAGAIDAFDSWGPGTLVTVSS VL: AYDMTQTPASVSEPVGGTVTIKCQASESISNYLSWYQQKPGQPPKLLIYKASTLASGVPSRFKGSGSGTEYTVTISGVQSDDAATYYCQQSYSSSNVFNTFGGGTEVVVK , report its T½.
Marked response: 3.63
